Data provenance: paper PMC10694828

molecular target: MAO-B (Homo sapiens); experiment: MAO-B inhibition, continuous assay with benzylamine; assay type: biochemical; settings: read-out: Residual activity at 10 μM (%) MAO-B
OBSERVABLE: remaining activity at 10 µM (%)

The examples below pair each entry with its known result.
>>> value_measured("O=C1Nc2ccccc2/C1=N/N=Cc1ccc(OCc2cccc(F)c2)cc1")
-3.03
>>> value_measured("O=C1Nc2ccc(Br)cc2C1=NN=Cc1ccc(OCc2cccc(F)c2)cc1")
57.6

[P] O=C1Nc2ccccc2C1=NN=Cc1cccc(OCc2ccccc2)c1
[Q] O=C1Nc2ccccc2/C1=N/N=Cc1ccc(OCc2ccccc2)cc1
[R] O=C1Nc2ccc(F)cc2C1=NN=Cc1ccc(OCc2ccccc2)cc1
*Q* Parameters: sort_field (remaining activity at 10 µM), sort_dir (desc). Response field: labels, in requested order.
*A* R, P, Q

----------
biological target: MAO-B (Homo sapiens); assay: MAO-B inhibition, continuous assay with benzylamine; assay type: biochemical; details: (IC50 of MAO-A)/(IC50 of MAO-B)
OBSERVABLE: SI (selectivity index for MAO-B compared to MAO-A)

[P] O=C1Nc2ccccc2/C1=N/N=Cc1ccc(OCc2ccccc2)cc1
[Q] O=C1Nc2ccccc2C1=NN=Cc1cccc(OCc2ccccc2)c1
*Q* Please compare: P and Q . Report which one has the smaller SI (selectivity index for MAO-B compared to MAO-A) value. In your reply, give the label of the chosen option.
*A* Q

----------
Target: recombinant human MAO-A (Homo sapiens)
Sequence (P21397 1-527): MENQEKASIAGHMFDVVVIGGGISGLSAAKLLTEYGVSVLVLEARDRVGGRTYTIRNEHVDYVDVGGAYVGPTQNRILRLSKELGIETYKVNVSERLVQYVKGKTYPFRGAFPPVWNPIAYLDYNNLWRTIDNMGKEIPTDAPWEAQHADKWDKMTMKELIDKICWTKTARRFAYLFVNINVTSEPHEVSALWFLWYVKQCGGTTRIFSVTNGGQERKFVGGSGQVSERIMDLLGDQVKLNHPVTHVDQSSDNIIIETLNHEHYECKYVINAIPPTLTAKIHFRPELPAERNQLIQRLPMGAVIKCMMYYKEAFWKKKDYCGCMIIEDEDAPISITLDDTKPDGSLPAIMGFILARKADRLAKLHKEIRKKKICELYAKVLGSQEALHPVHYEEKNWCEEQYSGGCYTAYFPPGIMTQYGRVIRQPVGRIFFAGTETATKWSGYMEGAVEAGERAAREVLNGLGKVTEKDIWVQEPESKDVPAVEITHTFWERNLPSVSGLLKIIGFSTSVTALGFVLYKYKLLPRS
Assay: MAO-A inhibition, continuous assay with kynuramine
pIC50: −log10 of the molar value.
OBSERVABLE: pIC50

>>> value_measured("O=C1Nc2ccccc2C1=NN=Cc1cccc(OCc2ccccc2)c1")
5.80

[1] O=C1Nc2ccccc2/C1=N/N=Cc1ccc(OCc2cccc(F)c2)cc1
[2] O=C1Nc2ccccc2/C1=N/N=Cc1ccc(OCc2ccccc2)cc1
*Q* Please compare: 1 and 2 . Report which one has the smaller pIC50 value. In your reply, give the label of the chosen option.
*A* 2

----------
Target sequence: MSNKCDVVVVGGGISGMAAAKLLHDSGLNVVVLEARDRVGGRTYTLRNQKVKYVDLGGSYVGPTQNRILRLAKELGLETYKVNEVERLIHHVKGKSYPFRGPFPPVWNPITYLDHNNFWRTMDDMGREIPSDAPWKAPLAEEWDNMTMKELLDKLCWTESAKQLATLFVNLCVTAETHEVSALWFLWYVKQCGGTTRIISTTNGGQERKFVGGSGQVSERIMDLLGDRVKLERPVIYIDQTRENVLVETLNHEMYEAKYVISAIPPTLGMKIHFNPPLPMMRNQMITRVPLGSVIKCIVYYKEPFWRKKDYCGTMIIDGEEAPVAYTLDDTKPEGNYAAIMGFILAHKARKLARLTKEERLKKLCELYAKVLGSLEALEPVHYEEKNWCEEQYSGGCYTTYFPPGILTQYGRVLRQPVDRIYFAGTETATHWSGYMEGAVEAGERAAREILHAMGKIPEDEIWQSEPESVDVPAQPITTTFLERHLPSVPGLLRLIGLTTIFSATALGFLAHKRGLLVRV
pIC50: −log10 of the molar value.
OBSERVABLE: pIC50

The examples below pair each entry with its known result.
>>> value_measured("O=C1Nc2ccc(Br)cc2C1=NN=Cc1ccc(OCc2cccc(F)c2)cc1")
4.79
>>> value_measured("O=C1Nc2ccccc2/C1=N/N=Cc1ccc(OCc2cccc(F)c2)cc1")
6.87

[a] O=C1Nc2ccccc2/C1=N/N=Cc1ccc(OCc2ccccc2)cc1
[b] O=C1Nc2ccc(F)cc2C1=NN=Cc1ccc(OCc2ccccc2)cc1
[c] O=C1Nc2ccccc2C1=NN=Cc1cccc(OCc2ccccc2)c1
*Q* Parameters: sort_field (pIC50), sort_dir (desc). Response field: labels, in requested order.
*A* a, c, b
(a: 6.91, c: 6.27, b: 4.86)

----------
assay: PAMPA for BBB permeation; assay type: in vitro ADME; conditions: PAMPA
OBSERVABLE: Papp (×10⁻⁶ cm/s)

>>> value_measured("O=C1Nc2ccccc2/C1=N/N=Cc1ccc(OCc2ccccc2)cc1")
4.93
>>> value_measured("O=C1Nc2ccccc2/C1=N/N=Cc1ccc(OCc2cccc(F)c2)cc1")
4.09

----------
target: recombinant human MAO-A (Homo sapiens); assay: MAO-A inhibition, continuous assay with kynuramine; type: biochemical; conditions: read-out: Residual activity at 10 μM (%) MAO-A
OBSERVABLE: remaining activity at 10 µM (%)

The examples below pair each entry with its known result.
>>> value_measured("O=C1Nc2ccc(Br)cc2C1=NN=Cc1ccc(OCc2cccc(F)c2)cc1 [ISFB2]")
88.5
>>> value_measured("O=C1Nc2ccccc2/C1=N/N=Cc1ccc(OCc2cccc(F)c2)cc1 [ISFB1]")
4.17

[I] O=C1Nc2ccccc2C1=NN=Cc1cccc(OCc2ccccc2)c1 [ISBB1]
[II] O=C1Nc2ccc(F)cc2C1=NN=Cc1ccc(OCc2ccccc2)cc1 [ISB3]
[III] O=C1Nc2ccccc2/C1=N/N=Cc1ccc(OCc2ccccc2)cc1 [ISB1]
*Q* Parameters: sort_field (remaining activity at 10 µM), sort_dir (desc). Response field: labels, in requested order.
*A* II, III, I
(II: 74.5%, III: 38.8%, I: 4.84%)
